Molecular target: T1, human big-endothelin-1 (big-ET-1) (human)
T1 construct: 38 amino acid peptide; also called human big-ET-1; hBig-ET-1
T1 peptide: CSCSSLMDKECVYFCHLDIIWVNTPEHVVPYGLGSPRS
Assay: SPR (Biacore T200), 37 C, mAb capture, peptide analyte
reported_metric: koff

Some entries whose results are on file:
[
  {
    "binder": "H4H6329P (antibody, V domains shown, Human IgG4 Fc (prefix H4H)) VH: QVQLVESGGGVVQPGRSLRLSCAASGFTFGSYGMHWVRQAPGKGLEWVAVIWYDGSDEYYTDSVKGRFTVSRDNSKYTLYLQMNSLRADDTAVYYCARDGYRTRGNYFDYWGQGTLVTVSS VL: DVVMTQSPLSLPVALGQPASISCRSSQSLVYSDGNTYLNWFQQRPGQSPRRLIYKVSNRDSGVPDRFGGSGSGTDFTLKISRVEAEDVGLYYCMQGTHWPPTFGGGTKVEIK",
    "assay_value": "0.000176 s⁻¹"
  },
  {
    "binder": "H4H6492N2 (antibody, V domains shown, Human IgG4 Fc (prefix H4H)) VH: EVQLVESGGGLVKPGGSLRVSCVASGFTFSNAWMTWVRQTPGKGLEWVGRIKSRTDGGTVDYVAPVKGRFTISRDDSKNTLYLQMNSLKAEDTAVYYCRADLDYWGQGTLVTVSS VL: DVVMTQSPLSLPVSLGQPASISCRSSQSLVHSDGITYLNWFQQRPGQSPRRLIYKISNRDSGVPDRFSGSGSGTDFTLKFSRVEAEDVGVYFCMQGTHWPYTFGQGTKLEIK",
    "assay_value": "0.0297 s⁻¹"
  },
  {
    "binder": "H1M6494N (antibody, V domains shown, Hybridoma antibody, human variable domains, mouse constant domains; prefix H1M marks the Fc region (isotype not spelled out)) VH: EVQLVESGGGLVKPGGSLRVSCVASGFTFSNAWMTWVRQTPGKGLECVGRIKSRTDGGTVDYVAPVKGRFTISRDDSKNTLYLQMNSLKAEDTAVYYCRADLDYWGQGTLVTVSS VL: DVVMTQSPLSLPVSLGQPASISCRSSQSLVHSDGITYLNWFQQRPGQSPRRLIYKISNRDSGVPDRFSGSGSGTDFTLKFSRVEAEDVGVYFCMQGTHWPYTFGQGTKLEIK",
    "assay_value": "0.00169 s⁻¹"
  }
]

Please find the next binder below.
Noted for H4H6323P (antibody, V domains shown, Human IgG4 Fc (prefix H4H)) VH: QITLKESGPPLVKPTQTLTLTCTFSGFSLNTNGMGVGWIRQPPGKALEWLTLIYWNDDKRYSPSLKTRLTITKDTSKNQVVLTMTNMDPVDTATYYCARFGSGTYWGQGTLVTVSS VL: DIVMTQSPLSLPVTPGEPASISCRSSQSLLHSYGYNFLDWFLQKPGQSPQLLIYLGSHRASGVPDRFSGSGSGTDFTLKISRVEAEDVGVYYCMQALQTPLTFGGGTKVEIK : its koff reads 0.00569 s⁻¹
